Cited source: patent US12227490B2

# studySystem: AR (androgen receptor) protein in VCaP cells (Homo sapiens, UniProt P10275)
# Construct: endogenous in cells; host or cells: VCaP cells
# Sequence (P10275 whole entry): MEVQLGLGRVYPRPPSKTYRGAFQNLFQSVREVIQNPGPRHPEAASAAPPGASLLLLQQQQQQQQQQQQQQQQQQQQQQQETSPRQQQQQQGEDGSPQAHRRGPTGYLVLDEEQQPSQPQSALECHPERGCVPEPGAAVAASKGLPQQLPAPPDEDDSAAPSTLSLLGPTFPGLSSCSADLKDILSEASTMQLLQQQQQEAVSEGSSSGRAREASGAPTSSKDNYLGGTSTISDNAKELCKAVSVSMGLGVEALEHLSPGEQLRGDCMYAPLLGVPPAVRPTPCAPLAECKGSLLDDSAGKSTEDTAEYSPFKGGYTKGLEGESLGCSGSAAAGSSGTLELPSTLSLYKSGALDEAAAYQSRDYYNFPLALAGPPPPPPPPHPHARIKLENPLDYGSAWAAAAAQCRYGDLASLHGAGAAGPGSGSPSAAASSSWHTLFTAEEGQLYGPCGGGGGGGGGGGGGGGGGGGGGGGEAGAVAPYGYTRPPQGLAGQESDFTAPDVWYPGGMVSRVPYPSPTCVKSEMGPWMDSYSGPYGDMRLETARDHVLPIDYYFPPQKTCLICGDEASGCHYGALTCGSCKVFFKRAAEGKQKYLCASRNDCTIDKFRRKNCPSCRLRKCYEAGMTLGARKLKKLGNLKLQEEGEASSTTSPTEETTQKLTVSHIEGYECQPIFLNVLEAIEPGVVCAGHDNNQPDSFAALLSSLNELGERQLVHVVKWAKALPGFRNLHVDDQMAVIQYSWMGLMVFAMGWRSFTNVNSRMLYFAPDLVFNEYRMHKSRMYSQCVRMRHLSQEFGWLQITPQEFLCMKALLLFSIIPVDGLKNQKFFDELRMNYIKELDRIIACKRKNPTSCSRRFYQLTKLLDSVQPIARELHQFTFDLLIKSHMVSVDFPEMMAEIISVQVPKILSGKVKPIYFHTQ
# assayProcedure: VCAP AR Degradation Assay
# Assay type: cell-based
# condition: 24 h, AR ELISA, concentration of compound when AR level = 50% of DMSO control
Where a name gives a salt, the structure may show the parent alone.
measurementName: DC50

• C[C@@H]1CN(CCO[C@H]2CC[C@H](N3C(=S)N(c4ccc(C#N)c(Cl)c4)C(=O)C3(C)C)CC2)C[C@H](C)N1CC(=O)Nc1cccc2c(C3CCC(=O)NC3=O)nn(C)c12 (stereo partly shown) [Cmpd 3, hydrochloride] = < 2 nM
• Cn1nc(C2CCC(=O)NC2=O)c2cccc(NC(=O)CN3CCN(CCCO[C@H]4CC[C@H](N5C(=S)N(c6cnc(C#N)c(C(F)(F)F)c6)C(=O)C5(C)C)CC4)C[C@@H]3C(F)(F)F)c21 (stereo partly shown) = 2 to 5 nM
• C[C@@H]1C[C@@H](CCO[C@H]2CC[C@H](N3C(=S)N(c4cnc(C#N)c(C(F)(F)F)c4)C(=O)C3(C)C)CC2)C[C@H](C)N1CC(=O)Nc1cccc2c(C3CCC(=O)NC3=O)nn(C)c12 (stereo partly shown) = < 2 nM
• C[C@@H]1C[C@H](OCCO[C@H]2CC[C@H](N3C(=S)N(c4cnc(C#N)c(C(F)(F)F)c4)C(=O)C3(C)C)CC2)C[C@H](C)N1CC(=O)Nc1cccc2c(C3CCC(=O)NC3=O)nn(C)c12 (stereo partly shown) = < 2 nM
• C[C@@H]1CN(CCO[C@H]2CC[C@H](N3C(=S)N(c4cnc(C#N)c(C(F)(F)F)c4)C(=O)C3(C)C)CC2)C[C@H](C)N1CC(=O)Nc1cccc2c(C3CCC(=O)NC3=O)nn(C)c12 (stereo partly shown) [Cmpd 4, hydrochloride] = < 2 nM
• C[C@@H]1C[C@H](OCCO[C@H]2CC[C@H](N3C(=S)N(c4ccc(C#N)c(C(F)(F)F)c4)C(=O)C3(C)C)CC2)C[C@H](C)N1CC(=O)Nc1cccc2c(C3CCC(=O)NC3=O)nn(C)c12 (stereo partly shown) = 2 to 5 nM
• C[C@@H]1CN(CCO[C@H]2CC[C@H](N3C(=S)N(c4ccc(C#N)c(C(F)(F)F)c4)C(=O)C3(C)C)CC2)C[C@H](C)N1CC(=O)Nc1cccc2c(C3CCC(=O)NC3=O)nn(C)c12 (stereo partly shown) [Cmpd 1, hydrochloride] = < 2 nM
